Test system: Plasmodium falciparum
TEST DETAILS: GSK_TCMDC: Inhibition of Plasmodium falciparum 3D7 in whole erythrocytes, using parasite LDH activity as an index of growth.
Type: functional, organism-based
ASSAY CONTEXT: Plasmodium falciparum, 3D7
# label = Condition met if XC50 < 800 nM else Condition not met

Field: example entries. Status: answers known.
O=C(Nc1ccccc1)Nc1cccc(-c2nn3c(OCCN4CCCC4)cccc3c2-c2ccncc2)c1 = Condition met
C=C[C@H]1CN2CC[C@H]1C[C@H]2[C@H](O)c1ccnc2ccccc12 [CINCHONIDINE] = Condition met
O=C(Nc1cccc(CN2CCCN(Cc3cccc(F)c3)CC2)c1)c1ccc(Cl)c(Cl)c1 = Condition not met
O=C(NC(=S)NCc1ccncc1)c1ccccc1 = Condition not met
Cc1cc(=NN=Cc2ccccc2Cl)c2ccc(F)cc2[nH]1 = Condition met

Does `COc1ccccc1-c1nc2c(ccc3nc(N)nc(N)c32)[nH]1` have XC50 strictly under 800 nM?
Condition met

Does `Cc1cc(N[C@@H](CC(C)C)C(=O)Nc2ccccc2)nc(NCC2CCCCC2)n1` have XC50 strictly under 800 nM?
Condition not met

Does `Cc1ccc(-c2ccc3c(c2)C=C(C(=O)NC2CCN(CCNC(=O)c4cccs4)CC2)CCC3)cc1` have XC50 strictly under 800 nM?
Condition met

Does `Cc1[nH]c(C)c(-c2ccc(-c3ccc(Cl)cc3)nc2)c(=O)c1Cl` have XC50 strictly under 800 nM?
Condition met

Does CCN1CCC2(c3cccc(OC)c3)Cc3nc4ccccc4c(-c4ccccc4)c3CC2C1 (stereo not drawn) have XC50 strictly under 800 nM?
Condition met

Does `CS(=O)(=O)CCNCc1nc(-c2ccc3ncnc(Nc4ccc(OCc5cccc(F)c5)c(Cl)c4)c3c2)cs1` have XC50 strictly under 800 nM?
Condition met

Does `COc1ccc(NC(=O)/C=C/c2ccc(Cl)c(C(F)(F)F)c2)cc1OCCN(C(C)C)C(C)C` have XC50 strictly under 800 nM?
Condition met
